target: SARS-CoV-2 full length spike protein, V483A mutant (SARS-CoV-2, UniProt P0DTC2 14-1273)
metric name: median fluorescence intensity, fold over isotype control (fold over isotype)

[[record]]
binder = "antibody 266 (antibody, V domains shown) VH: QVQLVESGGGVVQPGRSLRLSCAASGFNLSNYAMHWVRQPSGKGLEWVSLISYDGSIKYYTDSVKGRFTVSGDNSKNTLFLQMNSLRPDDSALYYCVRGGVSGPNSFDMWGQGTTVTVSS VL: DVVMTQSPLSLPVTLGQPASISCRSSQSLVYSDGNTYVNWFQQRPGQSPRRLIYQVSIRASGVPDRFSGSGSGTDFALKISRVEAEDVGVYYCMQGTHWPVTFGQGTKVEIK"
endpoint_result = 10.8

[[record]]
binder = "antibody 273 (antibody, V domains shown) VH: QVQLVQSGAEVKKPGASVKVSCKVSGYTLTELSMHWVRQAPGKGLEWMGGFDPEDGETIYAQKFQGRVTMTEDTSTDTAYMELSSLRSEDTAVYYCATAPGYYDSSAPQPINWFDPWGQGTLVTVSS VL: QSALTQPASVSGSPGQSITISCTGTSSDVGSYNLVSWYQQHPGKAPKLMIYEVSKRPSGVSNRFSGSKSGNTASLTISGLQAEDEADYYCCSYAGSSTLVFGGGTKLTVL"
endpoint_result = 16

[[record]]
binder = "antibody 265 (antibody, V domains shown) VH: EVQLVQSGAEVKKPGATVKVSCKFSGDTFSHYYIHWVQQAPGKGLEWMGLVDPQDGESEYAQKFQGKVTITADTSIDTSYLEVTSLRFDDTAFYFCATRGMSGAFDRWGQGTLVTVSS VL: DIVMTQSPDSLAVSLGERATINCKSSQSILSTSNNKNYLAWYQQKPGQPPKLLIYWASTRESGVPDRFSGGGSGTDFTLTISSLQAEDVAVYYCQQYYRTAYTTPIYTFGQGTKLEIK"
endpoint_result = 14.5

[[record]]
binder = "antibody 263 (antibody, V domains shown) VH: EVQLVQSGAEVKKPGATVKISCKVSGYTFTDYYMHWVQQAPGKGLEWMGLVDPEDGETIYAEKFQGRVTITADTSTDTAYMELSSLRSDDTAVYYCTTDLAFTIFGGRRGFDPWGQGTLVTVSS VL: DIQLTQSPSFLSASVGDRVTITCRASQGISSYLAWYQQKPGKAPKLLIYAASTLQSGVPSRFSGSGSGTEFTLTISSLQPEDFATYYCQQLNSYDFGQGTRLEIK"
endpoint_result = 17.3

[[record]]
binder = "antibody 276 (antibody, V domains shown) VH: QVQLQESGPGLVKPSQTLSLTCTVSGDSISSGGYYWSWIRQHPGKGLEWIGYIYYSGSAYYNPSLKSRVTISLDTSKNQFSLKLSSVTAADTAVYYCARDSVAGFSIFDYWGQGTLVTVSS VL: SSELTQDPAVSVALGQTVRITCQGDSLRSYYASWYQQKPGQAPVRVIYGKNNRPSGIPDRFSGSSSGNTASLTITGAQAEDEADYYCNSWDSSGNHVVFGGGTKLTVL"
endpoint_result = 11.1

